tgt: P2X7 receptor (Homo sapiens, UniProt Q99572)
method.description: IL-1β secretion assay in LPS-primed human monocytes stimulated with ATP
Format: cell-based
Set-up: monocytes were selected by adherence to the tissue culture plastic; endogenous in cells; host or cells: LPS-primed adherent monocytes from human peripheral blood
assay.context: human peripheral blood monocytes, 1 ng/mL LPS, 1 mM ATP, 30 min; read-out: IL1β inhibition IC50
pIC50: −log10 of the molar value.
recorded.endpoint: pIC50

As a guide, the following entries are already answered.
- compound: "O=C(Nc1ncnc2c1ncn2[C@@H]1O[C@H](CO)C2OC3(CCCCC3)O[C@@H]21)NC1CCCCC1 (some centres unmarked)"
  observed: 7.19
- compound: "CCNC(=O)OC[C@H]1O[C@@H](n2cnc3c(NC(=O)NC4CCCCC4)ncnc32)[C@H]2OC3(CCCCC3)OC12 (some centres unmarked)"
  observed: 7.00
- compound: "CCNC(=O)[C@H]1O[C@@H](n2cnc3c(NC(=O)NC4CCCCC4)ncnc32)[C@H]2OC3(CCCCC3)OC12 (some centres unmarked)"
  observed: 7.16

A = O=C(Nc1ncnc2c1ncn2[C@@H]1O[C@H](C(=O)O)C2OC3(CCCCC3)O[C@@H]21)NC12CC3CC(CC(C3)C1)C2 (some centres unmarked)
B = O=C(Nc1ncnc2c1ncn2[C@@H]1O[C@H](C(=O)NCCO)C2OC3(CCCCC3)O[C@@H]21)NC1CCCCC1 (some centres unmarked)
IN: Just curious, which one has the larger pIC50 reading, A or B ? Respond with the label that goes with your answer.
OUT: B

###

tgt: P2X7 receptor (Homo sapiens)
method.description: Calcium signalling (Fluo-3, FLIPR) in 1321N1 cells expressing P2X7, BzATP challenge
Format: cell-based
Parameters: expressed in transfected cells; host or cells: human astrocytoma 1321N1 cells
assay.context: human astrocytoma 1321N1 cells expressing P2X7, 30 uM BzATP; read-out: Inhibition of Ca^+2 signaling IC50
recorded.endpoint: IC50 (nM)

As a guide, the following entries are already answered.
- compound: "CCNC(=O)[C@H]1O[C@@H](n2cnc3c(NC(=O)NC4CCCCC4)ncnc32)[C@H]2OC3(CCCCC3)OC12 (some centres unmarked)"
  recorded.endpoint: "IC50"
  observed: 295
- compound: "CCNC(=O)OC[C@H]1O[C@@H](n2cnc3c(NC(=O)NC4CCCCC4)ncnc32)[C@H]2OC3(CCCCC3)OC12 (some centres unmarked)"
  recorded.endpoint: "IC50"
  observed: 852
- compound: "O=C(Nc1ncnc2c1ncn2[C@@H]1O[C@H](CO)C2OC3(CCCCC3)O[C@@H]21)NC1CCCCC1 (some centres unmarked)"
  recorded.endpoint: "IC50"
  observed: 477

1 = O=C(Nc1ncnc2c1ncn2[C@@H]1O[C@H](C(=O)O)C2OC3(CCCCC3)O[C@@H]21)NC12CC3CC(CC(C3)C1)C2 (some centres unmarked)
2 = O=C(Nc1ncnc2c1ncn2[C@@H]1O[C@H](C(=O)NCCO)C2OC3(CCCCC3)O[C@@H]21)NC1CCCCC1 (some centres unmarked)
IN: Just curious, which one has the larger IC50 reading, 1 or 2 ? Respond with the label that goes with your answer.
OUT: 1

###

tgt: P2X7 receptor (Homo sapiens, UniProt Q99572)
Sequence (Q99572 1-595): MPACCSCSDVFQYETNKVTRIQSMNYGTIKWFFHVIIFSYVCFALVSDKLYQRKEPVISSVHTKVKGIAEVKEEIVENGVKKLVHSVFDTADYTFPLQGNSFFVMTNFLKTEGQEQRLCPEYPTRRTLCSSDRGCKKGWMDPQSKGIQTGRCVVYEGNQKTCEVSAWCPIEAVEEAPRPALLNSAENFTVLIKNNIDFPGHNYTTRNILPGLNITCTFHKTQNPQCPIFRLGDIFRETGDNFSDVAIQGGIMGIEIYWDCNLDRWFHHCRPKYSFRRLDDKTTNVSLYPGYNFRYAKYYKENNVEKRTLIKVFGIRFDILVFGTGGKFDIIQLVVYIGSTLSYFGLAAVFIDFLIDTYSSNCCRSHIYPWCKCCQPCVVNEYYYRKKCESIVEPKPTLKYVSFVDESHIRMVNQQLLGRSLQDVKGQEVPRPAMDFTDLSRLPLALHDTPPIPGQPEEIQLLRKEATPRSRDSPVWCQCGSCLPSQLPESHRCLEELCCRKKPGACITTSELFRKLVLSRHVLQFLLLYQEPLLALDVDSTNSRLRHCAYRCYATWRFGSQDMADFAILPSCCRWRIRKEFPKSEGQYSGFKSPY
method.description: Pore formation assay (Yo-Pro dye influx) in 1321N1 cells expressing P2X7, BzATP challenge
Assay type: cell-based
Set-up: expressed in transfected cells; host or cells: human astrocytoma 1321N1 cells
assay.context: 1321N1 cells expressing P2X7, 100 uM BzATP, Yo-Pro fluorescence after 90 minutes
recorded.endpoint: IC50 (nM)

A = O=C(Nc1ncnc2c1ncn2[C@@H]1O[C@H](CO)C2OC3(CCCCC3)O[C@@H]21)NC1CCCCC1 (some centres unmarked)
B = CCNC(=O)OC[C@H]1O[C@@H](n2cnc3c(NC(=O)NC4CCCCC4)ncnc32)[C@H]2OC3(CCCCC3)OC12 (some centres unmarked)
C = CCNC(=O)[C@H]1O[C@@H](n2cnc3c(NC(=O)NC4CCCCC4)ncnc32)[C@H]2OC3(CCCCC3)OC12 (some centres unmarked)
D = O=C(Nc1ncnc2c1ncn2[C@@H]1O[C@H](C(=O)O)C2OC3(CCCCC3)O[C@@H]21)NC12CC3CC(CC(C3)C1)C2 (some centres unmarked)
IN: Sort the items above on IC50, descending. Output spec: labels arranged per the requested ranking.
OUT: A, B, C, D
(A: 346 nM, B: 234 nM, C: 152 nM, D: 52 nM)
